What melting point was measured for each of the following?

### Prompt Endpoint output: melting point of CC(=O)N(C)Cc1ccc(N/C(=C2\C(=O)Nc3ccc([N+](=O)[O-])cc32)c2ccccc2)cc1 [Example 122] . Value?
### Response 307 °C

### Prompt Entry CN(C)CCN(c1ccc(N/C(=C2\C(=O)Nc3ccc([N+](=O)[O-])cc32)c2ccccc2)cc1)S(=O)(=O)Cc1ccccc1 [Example 313] please
### Response 248 °C

### Prompt Entry CN(C)Cc1ccc(N/C(=C2\C(=O)Nc3ccccc32)c2cccc(Cl)c2)cc1 [Example 223] please
### Response 197 to 198 °C

### Prompt Entry O=C1Nc2ccc([N+](=O)[O-])cc2/C1=C(/Nc1ccc(NCCN2CCOCC2)cc1)c1ccccc1 [Example 332] please
### Response 253 °C

### Prompt Entry CCOC(=O)CNCCc1ccc(N/C(=C2\C(=O)Nc3ccc([N+](=O)[O-])cc32)c2ccccc2)cc1 [Example 178] please
### Response 139 to 140 °C

### Prompt Entry CC(=O)NCc1ccc(N/C(=C2\C(=O)Nc3ccccc32)c2ccccc2)cc1 [Example 56] please
### Response 207 to 210 °C

### Prompt Entry CN(C)CCN(C)CC(=O)N(C)c1ccc(N/C(=C2\C(=O)Nc3ccccc32)c2ccccc2)cc1 [Example 375] please
### Response 167 to 169 °C

### Prompt Entry O=C1Nc2ccccc2/C1=C(/Nc1ccc(OCCCN2CCCCC2)cc1)c1ccccc1 [Example 287] please
### Response 223 to 225 °C

### Prompt Entry COc1ccc(/C(Nc2ccc(CN(C)C)cc2)=C2/C(=O)Nc3ccc([N+](=O)[O-])cc32)cc1 [Example 216] please
### Response 259 to 262 °C

### Prompt Entry CN(C)CCNS(=O)(=O)c1ccc(N/C(=C2\C(=O)Nc3ccccc32)c2ccccc2)cc1 [Example 399] please
### Response 233 to 235 °C

### Prompt Entry CCCS(=O)(=O)N(CC(=O)N(C)C)c1ccc(N/C(=C2\C(=O)Nc3ccccc32)c2ccccc2)cc1 [Example 305] please
### Response 178 to 180 °C

### Prompt Entry NCc1ccc(N/C(=C2\C(=O)Nc3ccccc32)c2ccccc2)cc1 [Example 55] please
### Response 236 to 237 °C

### Prompt Entry CC(=O)NCc1ccc(N/C(=C2\C(=O)Nc3ccc([N+](=O)[O-])cc32)c2ccccc2)cc1 [Example 143] please
### Response 345 to 346 °C

### Prompt Entry CCS(=O)(=O)N(CC(=O)N(C)CCN(C)C)c1ccc(N/C(=C2\C(=O)Nc3ccc([N+](=O)[O-])cc32)c2ccccc2)cc1 [Example 296] please
### Response 117 °C

### Prompt Entry CCNCc1ccc(N/C(=C2\C(=O)Nc3ccc([N+](=O)[O-])cc32)c2ccccc2)cc1 [Example 160] please
### Response 220 to 223 °C

### Prompt Entry CCC(=O)N(CC(=O)N(C)C)c1ccc(N/C(=C2\C(=O)Nc3ccccc32)c2ccccc2)cc1 [Example 359] please
### Response 274 to 277 °C

### Prompt Entry COC(=O)/C=C/c1ccc(/C(Nc2ccc(OC)cc2)=C2/C(=O)Nc3ccc([N+](=O)[O-])cc32)cc1 [Example 435] please
### Response 266 to 270 °C

### Prompt Entry CC(=O)Nc1ccc(N/C(=C2\C(=O)Nc3ccccc32)c2ccccc2)cc1 [Example 31] please
### Response 236 to 238 °C

### Prompt Entry CN(CC(=O)O)C(=O)c1ccc(N/C(=C2\C(=O)Nc3ccccc32)c2ccccc2)cc1 [Example 395] please
### Response 168 to 170 °C

### Prompt Entry CNC(=O)C1CCN(Cc2ccc(N/C(=C3\C(=O)Nc4ccc([N+](=O)[O-])cc43)c3ccccc3)cc2)CC1 [Example 248] please
### Response 263 to 265 °C

### Prompt Entry CCOC(=O)CN(C)S(=O)(=O)c1ccc(N/C(=C2\C(=O)Nc3ccccc32)c2ccccc2)cc1 [Example 408] please
### Response 178 to 180 °C

### Prompt Entry O=C1Nc2ccc([N+](=O)[O-])cc2/C1=C(/Nc1ccc(CN2CCCCC2)cc1)c1ccc(Cl)cc1 [Example 443] please
### Response 309 to 311 °C

### Prompt Entry O=C1Nc2ccc([N+](=O)[O-])cc2/C1=C(/Nc1ccc(CNc2ccccc2)cc1)c1ccccc1 [Example 233] please
### Response 274 to 277 °C

### Prompt Entry CS(=O)(=O)N(CC#N)c1ccc(N/C(=C2\C(=O)Nc3ccccc32)c2ccccc2)cc1 [Example 187] please
### Response 266 to 268 °C

### Prompt Entry O=C1Nc2ccccc2/C1=C(/Nc1ccc(S(=O)(=O)N2CCCC2)cc1)c1ccccc1 [Example 397] please
### Response 293 to 294 °C

### Prompt Entry O=C1Nc2ccccc2/C1=C(/Nc1cccc(NC(=O)C(F)(F)F)c1)c1ccccc1 [Example 33] please
### Response 273 to 276 °C

### Prompt Entry CC(=O)N(CC(=O)N(C)C)c1ccc(N/C(=C2\C(=O)Nc3ccccc32)c2ccccc2)cc1 [Example 355] please
### Response 264 to 268 °C

### Prompt Entry O=C1Nc2ccccc2/C1=C(/Nc1ccc(C(=O)O)cc1)c1ccccc1 [Example 17] please
### Response 312 to 316 °C

### Prompt Entry O=C1Nc2ccccc2/C1=C(/Nc1ccc(NCCN2CCOCC2)cc1)c1ccccc1 [Example 346] please
### Response 257 °C

### Prompt Entry CN(C)C(=O)c1cccc(N/C(=C2\C(=O)Nc3ccccc32)c2ccccc2)c1 [Example 22] please
### Response 261 to 263 °C

Reference for the values: patent US6855710B2
